Target: T1, cynomolgus monkey CD3 E&D complex protein (Sino Biological Inc., CT032-00323H) (cynomolgus monkey, UniProt Q95LI5 22-117; Q95LI8 22-105)
T1 construct: bought heterodimer
T1 sequence (Q95LI5 22-117, chain 1 of 2): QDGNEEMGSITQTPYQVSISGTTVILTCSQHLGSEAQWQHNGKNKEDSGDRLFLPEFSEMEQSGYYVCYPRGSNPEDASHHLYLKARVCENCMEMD
T1 sequence (Q95LI8 22-105, chain 2 of 2): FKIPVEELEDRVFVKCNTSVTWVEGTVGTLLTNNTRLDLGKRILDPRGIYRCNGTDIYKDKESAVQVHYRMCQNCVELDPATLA
Assay: BLI, antibody on sensor
Procedure: 100 μl SD buffer, various antibodies, human CD3 E&D complex protein (Sino Biological Inc., CT026H0323H), and cynomolgus monkey CD3 E&D complex protein (Sino Biological Inc., CT032-00323H) were added into 96-well black polystyrene semi-quantitative micro-well plate (Greiner, 675076) respectively. Fortebio Octet Red 96 was used for detection, and the sensor position was selected according to the sample position. […]
RECORDED_METRIC: binding result

BINDER	RECORDED_METRIC	TEST_VALUE
hzsp34.10 (antibody, human IgG1, lambda, L234A L235A, V domains shown, IgG1 L234A L235A, lambda) VH: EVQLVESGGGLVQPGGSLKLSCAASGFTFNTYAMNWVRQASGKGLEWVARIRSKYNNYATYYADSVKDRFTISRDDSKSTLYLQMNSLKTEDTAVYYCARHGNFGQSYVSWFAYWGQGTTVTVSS VL: QAVVTQEPSLTVSPGGTVTLTCRSSTGAVTTSNYANWFQQKPGQAPRTLIYGTNKRAPWTPARFSGSLLGGKAALTLLGAQPEDEAEYYCALWYSNLWVFGQGTKLTVLG	binding result	no binding
hzsp34.8 (antibody, human IgG1, lambda, L234A L235A, V domains shown, IgG1 L234A L235A, lambda) VH: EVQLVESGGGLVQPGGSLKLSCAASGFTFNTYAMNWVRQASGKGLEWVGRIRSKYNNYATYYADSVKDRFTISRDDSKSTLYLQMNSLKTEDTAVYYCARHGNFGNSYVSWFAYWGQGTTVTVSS VL: QAVVTQEPSLTVSPGGTVTLTCRSSTGAVTTSNYANWFQQKPGQAPRTLIYGTNKRAPWTPARFSGSLLGGKAALTLLGAQPEDEAEYYCALWYSNLWVFGQGTKLTVLG	binding result	no binding
